Here the recorded Kd is given for each entry.
assay.target: T1, cynomolgus monkey IL-33 expressed with a C-terminal hexahistidine tag (cynomolgus monkey)
T1 construct: also called MfIL-33-6His; Mf-IL-33-6His
T1 chain: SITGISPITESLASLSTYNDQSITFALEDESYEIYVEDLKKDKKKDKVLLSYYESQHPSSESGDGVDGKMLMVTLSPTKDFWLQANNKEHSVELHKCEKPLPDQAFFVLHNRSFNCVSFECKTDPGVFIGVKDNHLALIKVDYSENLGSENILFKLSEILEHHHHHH
procedure.summary: SPR 25C pH7.4, mAb captured
Response body: numeric value in nM, unit text excluded.

As a guide, the following entries are already answered.
binder	Kd (nM)
H4H9666P (antibody, human IgG4, V domains shown, Human IgG4 Fc (H4H)) VH: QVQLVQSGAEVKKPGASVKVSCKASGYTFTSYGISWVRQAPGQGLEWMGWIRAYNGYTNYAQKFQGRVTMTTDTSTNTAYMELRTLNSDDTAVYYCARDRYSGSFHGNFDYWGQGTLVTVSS VL: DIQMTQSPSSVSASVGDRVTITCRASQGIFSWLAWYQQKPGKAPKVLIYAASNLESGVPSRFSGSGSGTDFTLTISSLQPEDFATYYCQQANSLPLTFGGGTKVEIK	15.9
H4H9662P (antibody, V domains shown, Human IgG4 Fc (H4H)) VH: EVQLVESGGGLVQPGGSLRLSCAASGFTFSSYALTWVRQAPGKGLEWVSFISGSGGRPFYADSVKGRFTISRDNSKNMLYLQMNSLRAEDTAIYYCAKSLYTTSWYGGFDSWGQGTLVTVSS VL: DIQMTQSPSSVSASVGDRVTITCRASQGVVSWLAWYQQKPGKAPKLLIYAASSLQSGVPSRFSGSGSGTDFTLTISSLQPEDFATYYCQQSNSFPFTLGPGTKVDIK	1.25

Let's switch to this binder now.
Quick check: Kd of H4H9660P (antibody, human IgG4, V domains shown, Human IgG4 Fc (H4H)) VH: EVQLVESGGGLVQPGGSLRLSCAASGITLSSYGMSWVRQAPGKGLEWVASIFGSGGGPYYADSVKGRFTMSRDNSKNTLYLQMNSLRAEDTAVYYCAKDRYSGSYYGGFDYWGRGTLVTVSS VL: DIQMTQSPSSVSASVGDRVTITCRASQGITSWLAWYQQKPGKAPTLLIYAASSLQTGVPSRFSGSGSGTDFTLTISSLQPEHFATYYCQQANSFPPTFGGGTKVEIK ?
3.49

From: patent US20160362487A1
